Below, each of the molecules is paired with its reported inhibition value.
- experimentalSystem: 17-beta-hydroxysteroid dehydrogenase type 1 (Homo sapiens)
- Sequence (whole entry): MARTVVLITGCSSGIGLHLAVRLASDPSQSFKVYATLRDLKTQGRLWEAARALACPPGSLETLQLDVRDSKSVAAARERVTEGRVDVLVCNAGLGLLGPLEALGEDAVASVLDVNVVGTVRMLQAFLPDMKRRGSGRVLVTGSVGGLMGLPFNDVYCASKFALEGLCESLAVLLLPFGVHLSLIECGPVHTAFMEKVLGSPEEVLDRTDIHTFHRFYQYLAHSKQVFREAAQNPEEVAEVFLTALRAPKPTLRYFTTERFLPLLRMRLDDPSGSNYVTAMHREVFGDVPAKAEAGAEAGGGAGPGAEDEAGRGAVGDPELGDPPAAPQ
- methodNotes: Inhibition of human recombinant 17beta-HSD1 expressed in human MCF7 cells at 1 uM by cell-based assay
Value expressed in %; do not type the unit.

The cases that follow already have their inhibition on record.
O=CC1=C(Sc2ccccc2O)c2sc3nc4n(c(=O)c3c2CC1)CCCCC4 : 90.1
CC(C)SC1=C(C=O)CCc2c1sc1nc3n(c(=O)c21)CCCCC3 : 100
O=CC1=C(Sc2cccc(O)c2)c2sc3nc4n(c(=O)c3c2CC1)CCCCC4 : 84.1

input: Lab note: 17-beta-hydroxysteroid dehydrogenase type 1 (Homo sapiens) assay, enter inhibition for `O=c1c2c3c(sc2nc2n1CCCCC2)CCCC3` here
output: 45.9

input: Lab note: 17-beta-hydroxysteroid dehydrogenase type 1 (Homo sapiens) assay, enter inhibition for `CC(C)(C)SC1=C(C=O)CCc2c1sc1nc3n(c(=O)c21)CCCCC3` here
output: 87

input: Lab note: 17-beta-hydroxysteroid dehydrogenase type 1 (Homo sapiens) assay, enter inhibition for `CCCSC1=C(/C=C/C(C)=O)CCc2c1sc1nc3n(c(=O)c21)CCCCC3` here
output: 8.9

----------
- experimentalSystem: 17-beta-hydroxysteroid dehydrogenase type 2 (Homo sapiens)
- methodNotes: Inhibition of human recombinant 17beta-HSD2 at 0.1 uM by cell-free assay
Active and inactive are the calls of the source. No cut-off for these calls is given here.
observedProperty: inhibition

O=CC1=C(SC2CCCC2)c2sc3nc4n(c(=O)c3c2CC1)CCCCC4 : inactive
O=CC1=C(SC2CCCCC2)c2sc3nc4n(c(=O)c3c2CC1)CCCCC4 : inactive
O=CC1=C(Sc2ccc(O)cc2)c2sc3nc4n(c(=O)c3c2CC1)CCCCC4 : 21.7%
O=Cc1ccc2c(sc3nc4n(c(=O)c32)CCCCC4)c1Sc1ccccc1 : inactive
CCCCSC1=C(C=O)CCc2c1sc1nc3n(c(=O)c21)CCCCC3 : inactive
O=c1c2c(nc3n1CCCCC3)sc1c(Sc3ccccc3)c(CO)ccc12 : 30.8%
COc1ccc(SC2=C(C=O)CCc3c2sc2nc4n(c(=O)c32)CCCCC4)cc1 : 8.6%
CCCSC1=C(/C=N/O)CCc2c1sc1nc3n(c(=O)c21)CCCCC3 : 19.7%
CCCSC1=C(C=O)CCc2c1sc1nc3n(c(=O)c21)CCCCCC3 : 31.4%
CCCSc1c(C=O)ccc2c1sc1nc3n(c(=O)c12)CCCCC3 : 3.8%

input: Give the reported inhibition for this compound. `CCSC1=C(C=O)CCc2c1sc1nc3n(c(=O)c21)CCCCC3`
output: inactive

input: Give the reported inhibition for this compound. `CC(C)(C)SC1=C(C=O)CCc2c1sc1nc3n(c(=O)c21)CCCCC3`
output: inactive

input: Give the reported inhibition for this compound. `O=CC1=C(SCC(=O)N2CCOCC2)c2sc3nc4n(c(=O)c3c2CC1)CCCCC4`
output: 3.9%

input: Give the reported inhibition for this compound. `CC(C)SC1=C(C=O)CCc2c1sc1nc3n(c(=O)c21)CCCCC3`
output: inactive

input: Give the reported inhibition for this compound. `CCCSC1=C(C=O)CCc2c1sc1ncn(C)c(=O)c21`
output: 12.9%

----------
- experimentalSystem: Estrogen receptor (Homo sapiens, UniProt P03372)
- Sequence (P03372 whole entry): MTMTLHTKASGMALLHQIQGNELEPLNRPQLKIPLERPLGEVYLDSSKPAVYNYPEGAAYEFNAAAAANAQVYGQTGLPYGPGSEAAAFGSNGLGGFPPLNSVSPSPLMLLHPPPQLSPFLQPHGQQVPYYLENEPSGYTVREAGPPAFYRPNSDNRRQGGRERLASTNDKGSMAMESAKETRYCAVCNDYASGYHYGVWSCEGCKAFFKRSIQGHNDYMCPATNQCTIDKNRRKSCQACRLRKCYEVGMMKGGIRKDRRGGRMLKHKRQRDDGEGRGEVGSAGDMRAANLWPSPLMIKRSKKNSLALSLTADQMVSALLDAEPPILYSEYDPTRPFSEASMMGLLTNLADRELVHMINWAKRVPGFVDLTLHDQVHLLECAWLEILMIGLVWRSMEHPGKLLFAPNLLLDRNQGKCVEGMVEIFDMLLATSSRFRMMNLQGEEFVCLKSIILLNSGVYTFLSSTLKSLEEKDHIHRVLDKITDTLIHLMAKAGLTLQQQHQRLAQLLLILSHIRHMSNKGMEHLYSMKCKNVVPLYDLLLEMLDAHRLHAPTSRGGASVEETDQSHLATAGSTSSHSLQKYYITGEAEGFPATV
- methodNotes: Activity at human recombinant ERalpha by fluorescence polarization assay
Below, each of the molecules is paired with its reported EC50 value.

The cases that follow already have their EC50 on record.
O=CC1=C(Sc2ccccc2)c2sc3nc4n(c(=O)c3c2CC1)CCCCC4 : > 10 µM
CC(C)(C)SC1=C(C=O)CCc2c1sc1nc3n(c(=O)c21)CCCCC3 : > 10 µM
O=Cc1ccc2c(sc3nc4n(c(=O)c32)CCCCC4)c1Sc1ccccc1 : > 1 µM
O=CC1=C(Sc2cccc(O)c2)c2sc3nc4n(c(=O)c3c2CC1)CCCCC4 : > 1 µM
O=CC1=C(SC2CCCCC2)c2sc3nc4n(c(=O)c3c2CC1)CCCCC4 : > 10 µM
CCCSC1=C(C=O)CCc2c1sc1nc3n(c(=O)c21)CCCCCC3 : > 1 µM
CCCSC1=C(C=O)CCc2c1sc1nc3n(c(=O)c21)CCCCC3 : > 1 µM
O=CC1=C(SC2CCCC2)c2sc3nc4n(c(=O)c3c2CC1)CCCCC4 : > 10 µM

Please examine the following record next.
input: Lab note: Estrogen receptor (Homo sapiens, UniProt P03372) assay, enter EC50 for `O=CC1=C(Cl)c2sc3nc4n(c(=O)c3c2CCC1)CCCCC4` here
output: > 10 µM

----------
- experimentalSystem: 17-beta-hydroxysteroid dehydrogenase type 2 (Homo sapiens)
- methodNotes: Inhibition of human recombinant 17beta-HSD2 at 0.1 uM by cell-free assay
Active and inactive are the calls of the source. No cut-off for these calls is given here.
observedProperty: inhibition

O=CC1=C(Sc2ccncc2)c2sc3nc4n(c(=O)c3c2CC1)CCCCC4 : 10.5%
O=CC1=C(SCc2ccccc2)c2sc3nc4n(c(=O)c3c2CC1)CCCCC4 : 25.8%
CCCSC1=C(C=O)CCCc2c1sc1nc3n(c(=O)c21)CCCCC3 : inactive
O=CC1=C(Sc2ccc(F)cc2)c2sc3nc4n(c(=O)c3c2CC1)CCCCC4 : 17%
Cc1ccc(SC2=C(C=O)CCc3c2sc2nc4n(c(=O)c32)CCCCC4)cc1 : 8.2%
O=CC1=C(Sc2cccc(O)c2)c2sc3nc4n(c(=O)c3c2CC1)CCCCC4 : 40.9%

input: Lab note: 17-beta-hydroxysteroid dehydrogenase type 2 (Homo sapiens) assay, enter inhibition for `O=CC1=C(Sc2ccccc2O)c2sc3nc4n(c(=O)c3c2CC1)CCCCC4` here
output: 32.6%

----------
- experimentalSystem: UniProtKB P37059
- Sequence (whole entry): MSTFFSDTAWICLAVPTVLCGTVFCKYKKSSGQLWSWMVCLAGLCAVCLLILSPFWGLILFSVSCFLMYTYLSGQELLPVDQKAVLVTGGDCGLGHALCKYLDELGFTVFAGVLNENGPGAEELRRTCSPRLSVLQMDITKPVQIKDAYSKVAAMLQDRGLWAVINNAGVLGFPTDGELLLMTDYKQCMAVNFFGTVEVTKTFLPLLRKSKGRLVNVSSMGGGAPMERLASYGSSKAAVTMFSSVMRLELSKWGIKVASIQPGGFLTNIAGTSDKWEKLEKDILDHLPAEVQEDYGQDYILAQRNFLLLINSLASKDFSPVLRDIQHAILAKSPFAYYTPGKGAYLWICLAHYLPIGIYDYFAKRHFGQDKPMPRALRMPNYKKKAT
- methodNotes: Inhibition of human recombinant 17beta-HSD2 at 1 uM by cell-free assay
Calls of active or inactive are those of the source. The calls are words filed in the database; no cut-off is given here.
observedProperty: inhibition

The cases that follow already have their inhibition on record.
Cc1ccc(SC2=C(C=O)CCc3c2sc2nc4n(c(=O)c32)CCCCC4)cc1 : 32.1%
CCCSC1=C(C=O)CCc2c1sc1nc3n(c(=O)c21)CCCCC3 : 5.3%
CCCSC1=C(/C=N/O)CCc2c1sc1nc3n(c(=O)c21)CCCCC3 : 41.1%
O=CC1=C(Sc2ccc(F)cc2)c2sc3nc4n(c(=O)c3c2CC1)CCCCC4 : 27.4%
O=CC1=C(Sc2ccc(O)cc2)c2sc3nc4n(c(=O)c3c2CC1)CCCCC4 : 22.6%

input: Give the reported inhibition for this compound. `CCCSc1c(CO)ccc2c1sc1nc3n(c(=O)c12)CCCCC3`
output: 20.6%

input: Give the reported inhibition for this compound. `O=CC1=C(SC2CCCC2)c2sc3nc4n(c(=O)c3c2CC1)CCCCC4`
output: inactive

input: Give the reported inhibition for this compound. `CCCSc1c(C=O)ccc2c1sc1nc3n(c(=O)c12)CCCCC3`
output: 12.7%

----------
- experimentalSystem: 17-beta-hydroxysteroid dehydrogenase type 1 (Homo sapiens) (UniProt P14061)
- Sequence (whole entry): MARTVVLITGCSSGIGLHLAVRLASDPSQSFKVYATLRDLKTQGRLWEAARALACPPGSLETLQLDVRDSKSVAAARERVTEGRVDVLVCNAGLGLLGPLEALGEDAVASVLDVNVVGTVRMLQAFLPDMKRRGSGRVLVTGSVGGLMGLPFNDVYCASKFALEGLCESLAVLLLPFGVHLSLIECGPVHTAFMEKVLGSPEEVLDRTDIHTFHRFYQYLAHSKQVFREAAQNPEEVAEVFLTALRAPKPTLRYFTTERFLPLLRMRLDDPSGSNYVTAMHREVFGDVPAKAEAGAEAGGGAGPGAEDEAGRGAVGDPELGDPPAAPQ
- methodNotes: Inhibition of human recombinant 17beta-HSD1 expressed in human MCF7 cells at 1 uM by cell-based assay
Below, each of the molecules is paired with its reported inhibition value.
Value expressed in %; do not type the unit.

The cases that follow already have their inhibition on record.
O=c1c2c(nc3n1CCCCC3)sc1c(Sc3ccccc3)c(CO)ccc12 : 46.9
O=CC1=C(SC2CCCC2)c2sc3nc4n(c(=O)c3c2CC1)CCCCC4 : 80.5
O=c1c2c3c(sc2nc2n1CCCCC2)C(Cl)=C(/C=N/O)CC3 : 15.1
O=CC1=C(Cl)c2sc3nc4n(c(=O)c3c2CC1)CCC4 : 38.6
Cc1ccc(SC2=C(C=O)CCc3c2sc2nc4n(c(=O)c32)CCCCC4)cc1 : 69.4
O=CC1=C(SC2CCCCC2)c2sc3nc4n(c(=O)c3c2CC1)CCCCC4 : 63.9
O=C1CCCc2c1sc1nc3n(c(=O)c21)CCCC3 : 35.8
CCSC1=C(C=O)CCc2c1sc1nc3n(c(=O)c21)CCCCC3 : 100

input: Give the reported inhibition for this molecule. `CCCSc1c(C=O)ccc2c1sc1nc3n(c(=O)c12)CCCCC3`
output: 86.4

input: Give the reported inhibition for this molecule. `O=Cc1ccc2c(sc3nc4n(c(=O)c32)CCCCC4)c1Sc1ccccc1`
output: 87.9

input: Give the reported inhibition for this molecule. `CCCSC1=C(C=O)CCc2c1sc1nc3n(c(=O)c21)CCCCC3`
output: 100

input: Give the reported inhibition for this molecule. `O=c1c2c3c(sc2nc2n1CCCCC2)C(Cl)=C(CO)CC3`
output: 36.2

input: Give the reported inhibition for this molecule. `O=CC1=C(Sc2ccc(O)cc2)c2sc3nc4n(c(=O)c3c2CC1)CCCCC4`
output: 76.8

input: Give the reported inhibition for this molecule. `CCCSC1=C(C=O)CCCc2c1sc1nc3n(c(=O)c21)CCCCC3`
output: 100

input: Give the reported inhibition for this molecule. `CCCSc1c(CO)ccc2c1sc1nc3n(c(=O)c12)CCCCC3`
output: 78.6

input: Give the reported inhibition for this molecule. `COc1ccc(SC2=C(C=O)CCc3c2sc2nc4n(c(=O)c32)CCCCC4)cc1`
output: 71.6

input: Give the reported inhibition for this molecule. `CCCCSC1=C(C=O)CCc2c1sc1nc3n(c(=O)c21)CCCCC3`
output: 100

input: Give the reported inhibition for this molecule. `O=CC1=C(Sc2ccc(F)cc2)c2sc3nc4n(c(=O)c3c2CC1)CCCCC4`
output: 27.4

input: Give the reported inhibition for this molecule. `CCCSC1=C(C=O)CCc2c1sc1ncn(C)c(=O)c21`
output: 48.2

input: Give the reported inhibition for this molecule. `CCCSC1=C(C=O)CCc2c1sc1nc3n(c(=O)c21)CCCCCC3`
output: 57

input: Give the reported inhibition for this molecule. `O=CC1=C(SCC(=O)N2CCOCC2)c2sc3nc4n(c(=O)c3c2CC1)CCCCC4`
output: 39.4
